- target.under.test: α-synuclein fibrils (Homo sapiens (Human))
- test.description: Direct radioligand binding assay of [18F]28, α-synuclein fibrils
- condition.context: α-synuclein fibrils
pKd: −log10 of the molar value.

molecule | pKd
COc1cc(-c2nc(-c3ccc4cc(OCCF)ccc4n3)no2)ccn1 [Compound 28] | 7.74

* * *

- target.under.test: Fibrils 4174 (Homo sapiens)
- test.description: 3H radioligand competition, Fibrils 4174
- condition.context: hot concentration 2 nM
pKi: −log10 of the molar value.

structure.as.smiles | pKi
COc1ccc2nc(-c3noc(-c4cocn4)n3)ccc2c1 | 6.19
COc1cccc(-c2nc(-c3ccc4cc(OC)ccc4n3)no2)c1 | 6.65
COc1ccc2nc(-c3noc(-c4ccc5c(c4)OCO5)n3)ccc2c1 | 6.79
COc1ccc2nc(-c3noc(-c4cscn4)n3)ccc2c1 | 6.81
COc1ccc2nc(-c3noc(-c4ccc(-n5cccn5)cc4)n3)ccc2c1 | 7.09
COc1ccc2cc(-c3noc(-c4ccnc(F)c4)n3)ccc2c1 | 6.69
COc1ccc2nc(-c3noc(-c4ccc5ncccc5c4)n3)ccc2c1 | 7.02

* * *

- target.under.test: α-synuclein fibrils (Homo sapiens (Human), UniProt P37840)
- test.description: Thioflavin T fluorescence competitive assay
- condition.context: read-out: Thioflavin T assay Ki; competition with ThT on recombinant α-synuclein fibrils; at least three experiments
readout: Ki (nM)

compound | measure.unit | operator.symbol | reported.value
COCOc1ccc2nc(-c3noc(-c4ccnc(OC)c4)n3)ccc2c1 [Compound 29] | nM | > | 1000
COc1ccc(Nc2ccc3cc(Br)ccc3n2)cn1 [TZ64-105] | nM | = | 10
CC(C)Oc1ccc2nc(-c3noc(-c4ccn5ccnc5c4)n3)ccc2c1 [Compound 32] | nM | > | 1000
COCOc1ccc2nc(-c3noc(-c4ccn5ccnc5c4)n3)ccc2c1 [Compound 34] | nM | > | 1000
COc1ccc(Nc2ccc3cc(I)ccc3n2)cn1 [TZ64-102] | nM | = | 12
COc1ccc2nc(-c3csc(/C=N/O)c3)ccc2c1 [TZ66-16] | nM | = | 11
COc1ccc(Nc2ccc3c([N+](=O)[O-])cccc3n2)cn1 [TZ64-82] | nM | = | 18
COC(=O)c1cc(-c2ccc3cc(OC)ccc3n2)cs1 [TZ66-25] | nM | = | 17
COc1ccc2nc(-c3noc(-c4ccn5ccnc5c4)n3)ccc2c1 [Compound 31] | nM | > | 1000
COc1cc(-c2nc(-c3ccc4cc(OC(C)C)ccc4n3)no2)ccn1 [Compound 30] | nM | > | 1000
COc1ccc2nc(-c3noc(-c4ccnc(OC)c4)n3)ccc2c1 [Compound 27] | nM | = | 630

* * *

- target.under.test: Aβ fibrils (Homo sapiens (Human))
- Sequence (P05067 672-713): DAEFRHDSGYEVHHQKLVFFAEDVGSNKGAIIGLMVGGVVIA
- test.description: Homologous competition radioligand binding assay, Aβ fibrils
- condition.context: 150 nM Aβ fibrils

structure.as.smiles | Kd [nM]
COc1ccc2nc(-c3csc(C=O)c3)ccc2c1 | 12

* * *

Parameter pKi: see the listing below.
- target.under.test: AD Tissue 6843
- test.description: 3H radioligand competition, AD Tissue 6843
- condition.context: hot concentration 2 nM
pKi: −log10 of the molar value.
readout: pKi

structure.as.smiles | reported.value
COc1ccc2nc(-c3noc(-c4ccc5ncccc5c4)n3)ccc2c1 | 7.68
COc1ccc2nc(-c3noc(-c4ccc(-n5cccn5)cc4)n3)ccc2c1 | 7.89

* * *

- target.under.test: PD-seeded fibrils (Homo sapiens (Human))
- test.description: Heterologous competition binding assay with [18F]TZ61-44 as radioligand
- condition.context: radioligand [18F]TZ61-44, 25 nM PD-seeded fibrils
Binning scheme for EC50: bottom end: < 30 nM; midrange: ≥ 30 nM and < 70 nM; top end: ≥ 70 nM

structure.as.smiles | target.under.test | qualitative.label
COc1ccc(Nc2ccc3cc(OC/C=C/I)ccc3n2)cn1 | PD-seeded fibrils (Homo sapiens (Human)) | bottom end
COc1ccc(Nc2ccc3c(F)cccc3n2)cn1 | PD-seeded fibrils (Homo sapiens (Human)) | midrange
COc1ccc2nc(-c3csc(C(=O)O)c3)ccc2c1 | PD-seeded fibrils (Homo sapiens (Human)) | top end
COc1ccc(Nc2ccc3cc(F)ccc3n2)cn1 | PD-seeded fibrils (Homo sapiens (Human)) | bottom end
COc1ccc2nc(-c3csc(C(C)=O)c3)ccc2c1 | PD-seeded fibrils (Homo sapiens (Human)) | top end
COCc1cc(-c2ccc3cc(OC)ccc3n2)cs1 | PD-seeded fibrils (Homo sapiens (Human)) | top end
C=CCOCc1cc(-c2ccc3cc(OC)ccc3n2)cs1 | PD-seeded fibrils (Homo sapiens (Human)) | top end
COc1ccc2nc(-c3coc(C=O)c3)ccc2c1 | PD-seeded fibrils (Homo sapiens (Human)) | bottom end
COc1ccc2nc(-c3csc(C=O)c3)ccc2c1 | PD-seeded fibrils (Homo sapiens (Human)) | midrange
COc1ccc(-c2ccc3cc(-c4cnc5ccccc5c4)ccc3n2)cn1 | PD-seeded fibrils (Homo sapiens (Human)) | bottom end
COc1ccc(Nc2ccc3cccc(F)c3n2)cn1 | PD-seeded fibrils (Homo sapiens (Human)) | midrange
COc1ccc2nc(-c3csc(C#N)c3)ccc2c1 | PD-seeded fibrils (Homo sapiens (Human)) | midrange

* * *

- target.under.test: α-synuclein fibrils (Homo sapiens (Human))
- test.description: Thioflavin T fluorescence competitive assay
- condition.context: read-out: Thioflavin T assay Ki; competition with ThT on recombinant α-synuclein fibrils; at least three experiments
pKi: −log10 of the molar value.
Parameter pKi: see the listing below.
readout: pKi

structure.as.smiles | readout | operator.symbol | reported.value
COc1ccc2nc(-c3coc(C=O)c3)ccc2c1 | pKi | = | 7.98
COc1ccc2nc(Nc3coc(C=O)c3)ccc2c1 | pKi | = | 7.74
COc1ccc(Nc2ccc3cc([N+](=O)[O-])ccc3n2)cn1 | pKi | = | 7.82
COc1cc(-c2nc(-c3ccc4cc(OCCF)ccc4n3)no2)ccn1 | pKi | = | 7.77
FCCOc1ccc2nc(-c3noc(-c4ccn5ccnc5c4)n3)ccc2c1 | pKi | < | 6.00

* * *

- target.under.test: PD-seeded fibrils (Homo sapiens (Human))
- test.description: Radioligand competition, PD-seeded fibrils (Tg-1-90B as radioligand)
- Type: binding
- condition.context: PD-seeded fibrils (Tg-1-90B radioligand); hot concentration 2 nM
pKi: −log10 of the molar value.
Parameter pKi: see the listing below.

structure.as.smiles | pKi
COc1ccc2nc(-c3noc(-c4ccc5ncccc5c4)n3)ccc2c1 | 7.41
COc1ccc2nc(-c3noc(-c4ccc(-n5cccn5)cc4)n3)ccc2c1 | 7.77
COc1ccc2nc(-c3noc(-c4ccc(-n5ccnc5)cc4)n3)ccc2c1 | 6.64

* * *

- target.under.test: PD-seeded fibrils (Homo sapiens (Human), UniProt P37840)
- test.description: Heterologous competition binding assay with [18F]TZ61-44 as radioligand
- condition.context: radioligand [18F]TZ61-44, 25 nM PD-seeded fibrils; Cheng-Prusoff from EC50
Parameter Ki: see the listing below.

molecule | target.under.test | Ki / nM
COc1ccc(Nc2ccc3cccc(F)c3n2)cn1 [TZ64-016] | PD-seeded fibrils (Homo sapiens (Human), UniProt P37840) | 42
COc1ccc(-c2ccc3cc(-c4cnc5ccccc5c4)ccc3n2)cn1 [TZ55-101] | PD-seeded fibrils (Homo sapiens (Human), UniProt P37840) | 14
COCc1cc(-c2ccc3cc(OC)ccc3n2)cs1 [TZ66-9] | PD-seeded fibrils (Homo sapiens (Human), UniProt P37840) | 78
COc1ccc(Nc2ccc3c(F)cccc3n2)cn1 [TZ64-015] | PD-seeded fibrils (Homo sapiens (Human), UniProt P37840) | 43
COc1ccc2nc(-c3csc(C=O)c3)ccc2c1 [TZ55-81] | PD-seeded fibrils (Homo sapiens (Human), UniProt P37840) | 43
COc1ccc(Nc2ccc3cc(OC/C=C/I)ccc3n2)cn1 [TZ61-84] | PD-seeded fibrils (Homo sapiens (Human), UniProt P37840) | 16
COc1ccc2nc(-c3coc(C=O)c3)ccc2c1 [TZ64-019] | PD-seeded fibrils (Homo sapiens (Human), UniProt P37840) | 27
COc1ccc2nc(-c3csc(C#N)c3)ccc2c1 [TZ64-020] | PD-seeded fibrils (Homo sapiens (Human), UniProt P37840) | 34
C=CCOCc1cc(-c2ccc3cc(OC)ccc3n2)cs1 [TZ66-8] | PD-seeded fibrils (Homo sapiens (Human), UniProt P37840) | 68
COc1ccc(Nc2ccc3cc(F)ccc3n2)cn1 [TZ64-013] | PD-seeded fibrils (Homo sapiens (Human), UniProt P37840) | 27
COc1ccc2nc(-c3csc(C(=O)O)c3)ccc2c1 [TZ66-3] | PD-seeded fibrils (Homo sapiens (Human), UniProt P37840) | 73
COc1ccc2nc(-c3csc(C(C)=O)c3)ccc2c1 [TZ64-018] | PD-seeded fibrils (Homo sapiens (Human), UniProt P37840) | 119

* * *

- target.under.test: Banner AD tissue
- test.description: Homologous competition radioligand binding assay, AD tissue
- condition.context: [18F]28
pKd: −log10 of the molar value.

structure.as.smiles | pKd
COc1cc(-c2nc(-c3ccc4cc(OCCF)ccc4n3)no2)ccn1 | 7.60
